Reference source for all entries: patent US6511998B2

- measuredOn: human neuropeptide Y5 receptor (Homo sapiens, UniProt Q15761)
- Construct: expressed in transfected cells; host or cells: HEK-293 (human embryonic kidney cells), stably transfected, G-418 selected; membranes
- Sequence (Q15761 whole entry): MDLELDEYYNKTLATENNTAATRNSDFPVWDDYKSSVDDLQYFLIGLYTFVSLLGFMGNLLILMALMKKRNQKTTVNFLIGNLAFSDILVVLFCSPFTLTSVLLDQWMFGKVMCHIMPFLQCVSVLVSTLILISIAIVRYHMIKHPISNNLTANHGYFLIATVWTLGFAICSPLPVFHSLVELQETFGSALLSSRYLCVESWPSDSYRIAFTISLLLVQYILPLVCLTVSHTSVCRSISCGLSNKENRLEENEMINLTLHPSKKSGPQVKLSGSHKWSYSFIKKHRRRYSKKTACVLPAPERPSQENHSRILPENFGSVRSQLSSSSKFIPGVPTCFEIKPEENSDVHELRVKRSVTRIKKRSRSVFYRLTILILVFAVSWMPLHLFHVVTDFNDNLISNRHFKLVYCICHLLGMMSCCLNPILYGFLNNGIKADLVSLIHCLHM
- protocolNotes: NPY5 HTS centrifugation assay: competition with 125I-PYY for binding to membranes of NPY5-transfected HEK-293 cells
- testSettings: 3 μM compound; % inhibition of 125I-PYY binding
measurementLabel: % Inh NPY5r 3 μM (%)
Give bare numbers, in %.

Here is how some compounds turned out for % Inh NPY5r 3 μM.
Cc1cc(C(=O)Nc2ccccc2-n2cccc2)nn1-c1cc(C(F)(F)F)ccc1Cl [Compound 147] = 21
Cc1cc(C(=O)Nc2ccccc2-n2cccc2)nn1-c1cccc(Cl)c1 [Compound 131] = 29

Working through the 3 compounds below one at a time, give % Inh NPY5r 3 μM for each.
1. Cc1cc(C(=O)NCCCN(C)C)nn1-c1cccc(C(F)(F)F)c1 [Compound 14]
2. Cc1cc(C(=O)Nc2cc(F)ccc2F)nn1-c1cccc(C(F)(F)F)c1 [Compound 31]
3. Cc1cc(C(=O)Nc2cccc(-c3ccccc3)c2)nn1-c1cccc(C(F)(F)F)c1 [Compound 111]

Output line:
16
25
33

Please state, for each entry, its recorded % Inh NPY5r 3 μM.
1. Cc1cccc(-n2nc(C(=O)Nc3ccccc3-n3cccc3)cc2C)c1 [Compound 101]
2. Cc1cc(C(=O)Nc2ccccc2-n2cccc2)nn1-c1ccccc1 [Compound 85]
3. COc1cccc(-n2nc(C(=O)Nc3ccccc3-n3cccc3)cc2C)c1 [Compound 136]
4. Cc1cc(C(=O)Nc2ccc(F)c(F)c2)nn1-c1cccc(C(F)(F)F)c1 [Compound 33]

Output line:
1: 56; 2: 21; 3: 42; 4: 82
